Test system: BDF1 mice, Adenocarcinoma 755 s.c., tumor weight T/C
testProtocol: NCI In Vivo Anticancer Drug Screen. Data for tumor model Adenocarcinoma 755 (subcutaneous) in B6D2F1 (BDF1) mice
measurementConditions: endpoint: mean tumor weight; dose: 10.0 mg/kg/injection; schedule: Q01DX011 (ip); vehicle: carboxymethylcellulose (CMC); higher = larger tumour
Method: The antitumor activity of compounds was measured in mice bearing transplantable tumors. Survival or tumor size were measured and the results are expressed as the measurement made in the treated group (T) divided by the measurement made in the vehicle treated control group (C). The tumor model used in this assay is Adenocarcinoma 755 (subcutaneous) in B6D2F1 (BDF1) mice
measurementName: T/C

Cc1cc(=O)c2c(C)cccc2[nH]1 = 112 % of control

Each compound below has a recorded value; state its T/C.
1. NC(Cc1ccc(N(CCCl)CCCl)cc1)C(=O)O (stereo unspecified)
2. C[N+](C)(C)C(C(=O)c1ccccc1)c1ccccc1 (stereo unspecified)
3. CCCCn1cnc2c(=S)nc[nH]c21
4. CNS(=O)(=O)c1ncnc2nc[nH]c12
5. CN(C)/N=N/c1nc[nH]c1C(N)=O

Result:
1. 4 % of control
2. 124 % of control
3. 2 % of control
4. 20 % of control
5. 59 % of control
